The values you see were collected from patent US20250270301A1.

// reported koff per item
Target: T1, full length recombinant human 2N4R tau (human, UniProt P10636 1-758)
T1 construct: bought from rPeptide; pHrodo Red maleimide-labelled where it stands in uptake assays; also called tau1-441; full length tau
T1 sequence (P10636 other isoform, or with tags, fused parts or gaps limits assumed): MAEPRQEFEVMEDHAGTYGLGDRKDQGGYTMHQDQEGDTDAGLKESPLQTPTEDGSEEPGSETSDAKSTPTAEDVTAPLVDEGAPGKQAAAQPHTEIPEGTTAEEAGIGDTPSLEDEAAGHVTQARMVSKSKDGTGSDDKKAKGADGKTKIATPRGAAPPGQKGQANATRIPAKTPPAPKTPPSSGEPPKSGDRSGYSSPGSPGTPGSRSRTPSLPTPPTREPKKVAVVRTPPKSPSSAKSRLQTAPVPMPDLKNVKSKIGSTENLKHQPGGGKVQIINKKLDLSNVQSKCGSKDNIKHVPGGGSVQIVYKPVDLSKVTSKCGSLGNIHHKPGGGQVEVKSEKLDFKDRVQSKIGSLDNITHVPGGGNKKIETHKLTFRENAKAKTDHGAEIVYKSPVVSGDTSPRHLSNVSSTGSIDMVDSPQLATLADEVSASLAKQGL
Assay: SPR SCK, IgG on Protein A, tau in flow
All answers are understood in s⁻¹, so give the number only.

These solved cases illustrate the format of a correct answer.
1. #44_VH4VK4 humanised hIgG1 (antibody, V domains shown, also called VH4Vκ4; pVH/pVL) VH: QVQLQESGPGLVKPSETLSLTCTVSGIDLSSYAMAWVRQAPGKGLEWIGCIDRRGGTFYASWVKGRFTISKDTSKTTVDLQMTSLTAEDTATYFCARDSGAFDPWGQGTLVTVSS VL: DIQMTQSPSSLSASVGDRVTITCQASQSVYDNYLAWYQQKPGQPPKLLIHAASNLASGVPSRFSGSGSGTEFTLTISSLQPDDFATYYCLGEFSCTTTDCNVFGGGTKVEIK = 0.012
2. #44_VH4VK4_H06-H01/pVL (antibody, V domains shown, also called H06-01/pVL; Clone VH4H_06_H01) VH: QVQLQESGPGLVKPSETLSLTCTVSGIDLSSYAMAWVRQAPGKGLEWIGVIDAAGHTFYASWVKGRFTISKDTSKTTVDLQMTSLTAEDTATYFCARDVGSFDVWGQGTLVTVSS VL: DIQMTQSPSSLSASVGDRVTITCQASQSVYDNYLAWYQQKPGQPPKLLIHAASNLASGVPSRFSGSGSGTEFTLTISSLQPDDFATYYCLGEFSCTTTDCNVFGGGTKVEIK = 0.0121
3. #44_VH4VK4_H02/pVL (antibody, V domains shown, also called Clone VH4_H02; #44_VH4_H02) VH: QVQLQESGPGLVKPSETLSLTCTVSGIDLSSYAMAWVRQAPGKGLEWIGCIDRRGGTFYASWVKGRFTISKDTSKTTVDLQMTSLTAEDTATYFCARDRGDFDVWGQGTLVTVSS VL: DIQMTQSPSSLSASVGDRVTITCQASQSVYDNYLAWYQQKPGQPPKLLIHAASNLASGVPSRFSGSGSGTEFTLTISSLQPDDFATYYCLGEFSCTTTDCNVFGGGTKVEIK = 0.00324
4. #44_VH4VK4_H13/pVL (antibody, V domains shown, also called Clone VH4_H13; #44_VH4_H13) VH: QVQLQESGPGLVKPSETLSLTCTVSGIDLSSYAMAWVRQAPGKGLEWIGAIDSAGNTFYASWVKGRFTISKDTSKTTVDLQMTSLTAEDTATYFCARDSGAFDPWGQGTLVTVSS VL: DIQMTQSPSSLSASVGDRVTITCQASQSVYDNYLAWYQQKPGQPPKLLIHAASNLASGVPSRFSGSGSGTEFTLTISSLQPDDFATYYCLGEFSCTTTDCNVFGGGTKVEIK = 0.0148
5. #44_VH4VK4_H20/pVL (antibody, V domains shown, also called Clone VH4_H20; #44_VH4_H20) VH: QVQLQESGPGLVKPSETLSLTCTVSGIDLSSYAMAWVRQAPGKGLEWIGAIDSRGSTFYASWVKGRFTISKDTSKTTVDLQMTSLTAEDTATYFCARDSGAFDPWGQGTLVTVSS VL: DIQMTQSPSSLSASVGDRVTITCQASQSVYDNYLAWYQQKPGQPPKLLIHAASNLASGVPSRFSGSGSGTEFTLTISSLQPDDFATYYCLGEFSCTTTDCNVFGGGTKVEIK = 0.0404

Record #44_VH4VK4_H17/pVL (antibody, V domains shown, also called Clone VH4_H17; #44_VH4_H17) VH: QVQLQESGPGLVKPSETLSLTCTVSGIDLSSYAMAWVRQAPGKGLEWIGAIDRVGNTFYASWVKGRFTISKDTSKTTVDLQMTSLTAEDTATYFCARDSGAFDPWGQGTLVTVSS VL: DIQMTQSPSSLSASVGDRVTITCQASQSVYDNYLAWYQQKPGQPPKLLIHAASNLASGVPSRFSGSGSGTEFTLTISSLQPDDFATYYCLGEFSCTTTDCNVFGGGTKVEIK . Reported koff: 0.306

Record #44_VH4VK4_H06/pVL (antibody, V domains shown, also called Clone VH4_H06; #44_VH4_H06) VH: QVQLQESGPGLVKPSETLSLTCTVSGIDLSSYAMAWVRQAPGKGLEWIGVIDAAGHTFYASWVKGRFTISKDTSKTTVDLQMTSLTAEDTATYFCARDSGTFDPWGQGTLVTVSS VL: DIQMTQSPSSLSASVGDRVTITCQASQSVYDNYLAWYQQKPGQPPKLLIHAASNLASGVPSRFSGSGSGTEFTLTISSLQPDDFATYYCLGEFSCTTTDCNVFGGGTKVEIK . Reported koff: 0.00444
